targetOrTestSystem: rat μ opioid receptors (rMOR) (Rattus norvegicus, UniProt P33535)
Construct: expressed in transfected cells; host or cells: HN9.10 neuroblastoma cell line, pCDNA3, neomycin-selected clones
Sequence (P33535 whole entry): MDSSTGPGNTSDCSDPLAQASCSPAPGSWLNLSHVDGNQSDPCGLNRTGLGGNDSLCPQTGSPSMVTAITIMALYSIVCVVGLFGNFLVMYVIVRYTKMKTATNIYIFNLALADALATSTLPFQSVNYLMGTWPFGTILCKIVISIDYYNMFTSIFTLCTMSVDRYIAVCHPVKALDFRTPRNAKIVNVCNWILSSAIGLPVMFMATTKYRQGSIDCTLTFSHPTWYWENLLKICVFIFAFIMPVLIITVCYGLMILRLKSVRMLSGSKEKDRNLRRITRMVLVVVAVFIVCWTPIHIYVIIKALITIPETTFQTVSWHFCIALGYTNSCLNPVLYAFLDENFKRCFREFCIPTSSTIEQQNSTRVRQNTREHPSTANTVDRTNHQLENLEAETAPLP
protocol: biochemical
Format: biochemical
testSettings: read-out: GTP binding rMOR Emax
Peptide text beside a SMILES is read from it.
measure: Emax (%)

[[record]]
compound = "CCCC[C@@H]1NC(=O)[C@H](Cc2ccccc2)NC(=O)CNC(=O)[C@H](NC(=O)[C@@H](N)Cc2ccc(O)cc2)CSSC[C@H](C(=O)N[C@@H](Cc2c[nH]c3ccccc23)C(=O)NCc2cc(C(F)(F)F)cc(C(F)(F)F)c2)NC(=O)[C@@H]2CCCN2C1=O [TY038, [D-Cys^2, D-Cys^7]TY027] (HELM PEPTIDE1{Y.[dC].G.F.[Nle].P.[dC].W.[FC(F)(F)c1cc(CN[*:1])cc(C(F)(F)F)c1]}$PEPTIDE1,PEPTIDE1,2:R3-7:R3$$$V2.0; N-terminus assumed)"
quantitativereadout = 11

[[record]]
compound = "CC(C)C[C@H](NC(=O)[C@@H]1CCCN1C(=O)[C@@H]1NC(=O)[C@H](Cc2ccccc2)NC(=O)CNC(=O)[C@H](NC(=O)[C@@H](N)Cc2ccc(O)cc2)C(C)(C)SSC1(C)C)C(=O)N[C@@H](Cc1c[nH]c2ccccc12)C(=O)NCc1cc(C(F)(F)F)cc(C(F)(F)F)c1 [TY049]"
quantitativereadout = 25

[[record]]
compound = "CCCC[C@@H]1NC(=O)[C@H](Cc2ccccc2)NC(=O)CNC(=O)[C@H](NC(=O)[C@@H](N)Cc2ccc(O)cc2)CSSC[C@@H](C(=O)N[C@@H](Cc2c[nH]c3ccccc23)C(=O)NCc2cc(C(F)(F)F)cc(C(F)(F)F)c2)NC(=O)[C@@H]2CCCN2C1=O [TY035, [D-Cys^2, Cys^7]TY027] (HELM PEPTIDE1{Y.[dC].G.F.[Nle].P.C.W.[FC(F)(F)c1cc(CN[*:1])cc(C(F)(F)F)c1]}$PEPTIDE1,PEPTIDE1,2:R3-7:R3$$$V2.0; N-terminus assumed)"
quantitativereadout = 39

